- experimental system: GDP-bound KRAS protein (aa 1-169), containing both G12C and C118A amino acid substitutions (Homo sapiens (Human), UniProt P01116, C118A/G12C)
- Sequence (P01116 other isoform, or with tags, fused parts or gaps G12C/C118A): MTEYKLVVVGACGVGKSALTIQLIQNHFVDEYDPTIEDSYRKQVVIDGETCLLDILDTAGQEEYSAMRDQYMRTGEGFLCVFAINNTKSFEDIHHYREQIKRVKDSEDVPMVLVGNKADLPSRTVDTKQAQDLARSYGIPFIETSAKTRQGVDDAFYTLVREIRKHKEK
- protocol details: Coupled Nucleotide Exchange Assay
- Format: biochemical
- condition summary: read-out: Coupled Exchange IC50 (2 h); 2 h compound pre-incubation
- Protocol: For compounds in Table 9, the following assay conditions were employed: Coupled Nucleotide Exchange Assay: The assay plates were then read on a PerkinElmer EnVision Multilabel Reader, using AlphaScreen® technology, and data were analyzed using a 4-parameter logistic model to calculate IC50 values.
Decide using IC50 alone. Strictly below 2000 nM: label 1. Equal to or above 2000 nM: label 0.

molecule	assigned label
C=CC(=O)N1CC(NC(=O)Cn2cc([N+](=O)[O-])c3cc(Cl)ccc32)C1	label 0
C=CC(=O)N1CC(NC(=O)Cn2ccc3cc(OC)ccc32)C1	label 0
C=CC(=O)N1CC(NC(=O)Cn2c(C)c(C(=O)N3CCc4ccccc4[C@H]3C)c3cc(Br)cc(C)c32)C1 [Example 2-2-1]	label 1
C=CC(=O)N1CC(NC(=O)Cn2c3c(c4cc(Br)ccc42)CN(C(C)=O)CC3)C1	label 0
C=CC(=O)N1CC(NC(=O)Cn2cc(I)c3cc(Br)cc(C)c32)C1	label 1
C=CC(=O)N1CC(NC(=O)Cn2c3c(c4cc(Br)ccc42)CCN(C(=O)OCc2ccccc2)C3)C1	label 0
C=CC(=O)N1CC(N(C)C(=O)Cn2c(CC)c(C(=O)N3CCN(c4ccc(C#N)cn4)C[C@H]3C)c3cc(Cl)cc(C)c32)C1	label 1
C=CC(=O)N1CC(NC(=O)Cn2cc(C(=O)N3CCc4c(C)cccc4C3)c3cc(Br)ccc32)C1	label 1

* * *

- Test system: Phosphorylation of ERK1/2 in A549 cells
- protocol details: Phospho-ERK1/2 MSD Assay (A549)
- Format: cell-based
- condition summary: Homo sapiens, A549, 4 h, read-out: pERK IC50 (4 h, A549), 4 h compound treatment
pIC50: −log10 of the molar value.

compound	pIC50
C=CC(=O)N1CC(NC(=O)Cn2cc(C(=O)NCCc3ccccc3)c3cc(Br)ccc32)C1 [Example 140]	< 4.00
C=CC(=O)N1CC(N(C)C(=O)Cn2c(C)c(C(=O)N3CCN(c4ccc(C)cn4)CC3)c3cc(Br)ccc32)C1 [Example 47]	< 4.00
C=CC(=O)N1CC(NC(=O)Cn2c(C)c(C(=O)N3CCN(c4ccc(C(F)(F)F)cn4)CC3)c3cc(Br)ccc32)C1 [Example 40]	4.35
C=CC(=O)N1CC(NC(=O)Cn2cc(C(=O)NCc3ccccc3)c3cc(Br)ccc32)C1 [Example 163]	< 4.00
C=CC(=O)N1CC(N(C)C(=O)Cn2c(C)c(C(=O)N3CCN(c4ccc(C#N)cn4)CC3)c3cc(Br)ccc32)C1 [Example 27]	< 4.00
C=CC(=O)N1CC(NC(=O)Cn2cc(C(=O)NCCc3ccc(Cl)cc3Cl)c3cc(Br)ccc32)C1 [Example 161]	< 4.00
C=CC(=O)N1CC(NC(=O)Cn2cc(C(=O)N3CCc4c(Br)cc(C)cc4C3)c3cc(Br)ccc32)C1 [Example 120]	4.55
C=CC(=O)N1CC(NC(=O)Cn2cc(C(=O)N3CCc4c(cccc4OC)C3)c3cc(Br)ccc32)C1 [Example 76]	< 4.00
C=CC(=O)N1CC(NC(=O)Cn2c(C)c(C(=O)NCCC(=O)Nc3ccccc3CC)c3cc(Br)ccc32)C1 [Example 179]	< 4.00
C=CC(=O)N1CC(N(C)C(=O)Cn2c(CC3CC3)c(C(=O)N3CCc4c(cccc4OC)C3)c3cc(Cl)cc(C)c32)C1 [Example 4-4]	4.53
C=CC(=O)N1CC(N(C)C(=O)Cn2c(CC)c(C(=O)N3CCc4c(cccc4OC)C3)c3cc(Cl)cc(C)c32)C1 [Example 4-2]	< 4.00
C=CC(=O)N1CC(NC(=O)Cn2cc(C(=O)NCCc3ccc(Cl)cc3Cl)c3cc(Cl)cc(Cl)c32)C1 [Example 178]	< 4.00
C=CC(=O)N1CC(NC(=O)Cn2cc(C(=O)NCCN(C)c3cccc(C)c3)c3cc(Br)ccc32)C1 [Example 173]	< 4.00
C=CC(=O)N1CC(NC(=O)Cn2cc(C(=O)N3CCc4c(OC)ccc(Br)c4C3)c3cc(Br)ccc32)C1 [Example 157]	4.37
